# TEST PROTOCOL: Toxicity liver stage against HepG2, at 10uM
# Assay type: cell-based
# Parameters: test concentration 10 uM, cell line HepG2-A16-CD81EGFP
# MEASUREMENT CONTEXT: human, HepG2-A16-CD81EGFP cells; read-out: INHIBITION

{"MOLECULE": "Cc1nc(-c2ccccc2)c(C(=O)N2CCC3(CC(=O)NC3=O)C2)s1 (stereo not drawn)", "READOUT UNIT": "%", "cytotoxicity at 10 µM": -3.89}
{"MOLECULE": "Cc1cccc(C(=O)N2CCSCC2)c1NC(=O)c1ccsc1", "READOUT UNIT": "%", "cytotoxicity at 10 µM": 3.85}
{"MOLECULE": "N#CCCN(Cc1ccco1)C(=O)C1CCCc2ccccc21 (stereo not drawn)", "READOUT UNIT": "%", "cytotoxicity at 10 µM": -4.27}
{"MOLECULE": "CC(C)c1nc(C2CCCN2CCc2ccncc2)no1 (stereo not drawn)", "READOUT UNIT": "%", "cytotoxicity at 10 µM": -10.8}
{"MOLECULE": "CNC(=O)CN(C)c1cncc(OCc2ccccc2)n1", "READOUT UNIT": "%", "cytotoxicity at 10 µM": 1.15}
{"MOLECULE": "CCN(CC)CCCNCc1cc2cc(C)cc(C)c2[nH]c1=O", "READOUT UNIT": "%", "cytotoxicity at 10 µM": 7.63}
{"MOLECULE": "CC(=O)c1cn(CCC(=O)N[C@@H](CC(C)C)C(=O)O)c2ccccc12", "READOUT UNIT": "%", "cytotoxicity at 10 µM": 2.1}
{"MOLECULE": "Cc1noc(C)c1-c1cccc(CC2CCN(C(=O)CN)C2)n1 (stereo not drawn)", "READOUT UNIT": "%", "cytotoxicity at 10 µM": -3.36}
{"MOLECULE": "O=C(Cc1ccccc1)C1CCCN(Cc2cncn2C2CCCC2)C1 (stereo not drawn)", "READOUT UNIT": "%", "cytotoxicity at 10 µM": -1.11}
{"MOLECULE": "CN(C)CCn1c(=O)oc2ccc(NC(=O)c3cc(Cl)c[nH]3)cc21", "READOUT UNIT": "%", "cytotoxicity at 10 µM": 6.79}
{"MOLECULE": "Cc1cc(C)c(CNc2nc3ccccc3cc2CO)c(=O)[nH]1", "READOUT UNIT": "%", "cytotoxicity at 10 µM": 6.37}
{"MOLECULE": "COc1ncccc1C(=O)N1CCCC(n2ccnc2)C1 (stereo not drawn)", "READOUT UNIT": "%", "cytotoxicity at 10 µM": -5.1}
{"MOLECULE": "O=C(c1ccco1)N1C[C@@H]2CCN(c3cccnc3)C[C@@H]2C1", "READOUT UNIT": "%", "cytotoxicity at 10 µM": -68.3}
{"MOLECULE": "CNC(=O)c1sc2ncccc2c1C1CCN(C(=O)CCOC)C1 (stereo not drawn)", "READOUT UNIT": "%", "cytotoxicity at 10 µM": 6.42}
{"MOLECULE": "CN(Cc1cnn(C)c1)C(=O)CCS(=O)(=O)c1ccc2c(c1)OCCO2", "READOUT UNIT": "%", "cytotoxicity at 10 µM": -17}
{"MOLECULE": "COc1ccccc1CC(=O)NS(C)(=O)=O", "READOUT UNIT": "%", "cytotoxicity at 10 µM": -7.31}
{"MOLECULE": "CC1(C)O[C@@](C)([C@H]2CC3(CCN(c4cnccn4)CC3)CO2)CC[C@@H]1O", "READOUT UNIT": "%", "cytotoxicity at 10 µM": 5.53}
{"MOLECULE": "CCn1nc(C)cc1C(=O)OCCNc1ncnc2ccccc12", "READOUT UNIT": "%", "cytotoxicity at 10 µM": 61.8}
{"MOLECULE": "Cc1ccc(C2(CN(C)Cc3snnc3C)CCNCC2)nc1", "READOUT UNIT": "%", "cytotoxicity at 10 µM": -0.355}
{"MOLECULE": "Cc1ccc(CN2CCc3nnc(CN4CCCC4=O)n3CC2)s1", "READOUT UNIT": "%", "cytotoxicity at 10 µM": 1.02}
{"MOLECULE": "Cc1noc(C)c1CN(C)C(=O)NCCOc1ccc(F)cc1F", "READOUT UNIT": "%", "cytotoxicity at 10 µM": -0.0414}
{"MOLECULE": "O=C(NCC1CC1)C1CCC2(CCN(C(=O)c3cccnc3)CC2)O1 (stereo not drawn)", "READOUT UNIT": "%", "cytotoxicity at 10 µM": 3.59}
{"MOLECULE": "O=C(O)c1ccc(CNC(=O)C2CCN(Cc3ccco3)CC2)s1", "READOUT UNIT": "%", "cytotoxicity at 10 µM": -0.861}
{"MOLECULE": "CNc1cc(-c2ccccc2CN)c2cc[nH]c2n1", "READOUT UNIT": "%", "cytotoxicity at 10 µM": -1.43}
{"MOLECULE": "CCCOCC(=O)N1CCCC(c2nnc(CN3CCCCC3)n2C)C1 (stereo not drawn)", "READOUT UNIT": "%", "cytotoxicity at 10 µM": -2.34}
{"MOLECULE": "CC(=O)N1CCCC2(C1)CN(C(=O)C1CCCCC1)CCO2 (stereo not drawn)", "READOUT UNIT": "%", "cytotoxicity at 10 µM": 2.08}
{"MOLECULE": "CN(Cc1ccsc1)C(=O)Nc1ccc(S(C)(=O)=O)cc1", "READOUT UNIT": "%", "cytotoxicity at 10 µM": -4.77}
{"MOLECULE": "O=C(CCc1cc(Cl)no1)N1CCN(CCn2cncn2)CC1", "READOUT UNIT": "%", "cytotoxicity at 10 µM": -1.84}
{"MOLECULE": "COCCN1CC=C(c2cccc(OC)c2)CC1", "READOUT UNIT": "%", "cytotoxicity at 10 µM": 6.45}
{"MOLECULE": "O=C(Cc1cccs1)NCc1ccnc(C2CCCOC2)n1 (stereo not drawn)", "READOUT UNIT": "%", "cytotoxicity at 10 µM": 1.2}
{"MOLECULE": "CCOc1cccc(NC(=O)c2cc(C)on2)n1", "READOUT UNIT": "%", "cytotoxicity at 10 µM": -2.14}
{"MOLECULE": "COCC(=O)N1CCC2(CC1)CC(=O)N(Cc1ccc(Cl)cc1)C2", "READOUT UNIT": "%", "cytotoxicity at 10 µM": 0.96}
{"MOLECULE": "CCNC(=O)[C@@H]1C[C@H](NC(=O)c2cc(=O)[nH]c3ccc(C)cc23)CN1C", "READOUT UNIT": "%", "cytotoxicity at 10 µM": 7.44}
{"MOLECULE": "Cc1nnc(CN(Cc2cccc(Br)c2)C2CC2)o1", "READOUT UNIT": "%", "cytotoxicity at 10 µM": 3.94}
{"MOLECULE": "CC(C)c1noc(CCC(=O)NCC2CCC(C(N)=O)CC2)n1 (stereo not drawn)", "READOUT UNIT": "%", "cytotoxicity at 10 µM": -31.6}
{"MOLECULE": "NS(=O)(=O)CCNC(=O)C1(c2ccccc2)CC1", "READOUT UNIT": "%", "cytotoxicity at 10 µM": -0.18}
{"MOLECULE": "CSCCC(O)C(=O)N1CCC(OCc2cccnc2)CC1 (stereo not drawn)", "READOUT UNIT": "%", "cytotoxicity at 10 µM": 3.96}
{"MOLECULE": "c1ncn(CC2CCCN(Cc3cn4ccsc4n3)C2)n1 (stereo not drawn)", "READOUT UNIT": "%", "cytotoxicity at 10 µM": -7.04}
{"MOLECULE": "CN1N=C(c2nc(Cc3cccc(Br)c3)no2)CCC1=O", "READOUT UNIT": "%", "cytotoxicity at 10 µM": -6.09}
{"MOLECULE": "CCCN1CCC(N2CCN(c3cc(C)nc(C)c3)CC2)CC1", "READOUT UNIT": "%", "cytotoxicity at 10 µM": -11.2}
{"MOLECULE": "c1csc(CN2CCc3onc(Cn4cccc4)c3C2)c1", "READOUT UNIT": "%", "cytotoxicity at 10 µM": 6.59}
{"MOLECULE": "COC(=O)NCCC(=O)NCC1(c2cccc(Cl)c2)CC1", "READOUT UNIT": "%", "cytotoxicity at 10 µM": -4.31}
{"MOLECULE": "Cc1ccc(N2CC3(CCN(c4nccs4)C3)C2)nn1", "READOUT UNIT": "%", "cytotoxicity at 10 µM": -5.85}
{"MOLECULE": "Cn1nccc1CNC(=O)Cn1nc(C(F)(F)F)cc1C1CC1", "READOUT UNIT": "%", "cytotoxicity at 10 µM": -6.36}
{"MOLECULE": "CCNC(=O)C1(Cc2cc(-c3ccc(C)cc3)no2)CCCN(C)C1 (stereo not drawn)", "READOUT UNIT": "%", "cytotoxicity at 10 µM": 7.9}
{"MOLECULE": "COC(=O)c1cccc(CN(C)Cc2ncnn2C)c1C#N", "READOUT UNIT": "%", "cytotoxicity at 10 µM": -4.23}
{"MOLECULE": "CCn1cnnc1CCNC(=O)C1COc2ccc(OC)cc2C1 (stereo not drawn)", "READOUT UNIT": "%", "cytotoxicity at 10 µM": -1.31}
{"MOLECULE": "N#Cc1ccccc1CN1CCC(c2nccn2CC2CCC2)CC1", "READOUT UNIT": "%", "cytotoxicity at 10 µM": -10.1}
